tested on: Vero E6 infected with SARS-CoV-2; test: inhibition of SARS-CoV-2 cytopathic effect; higher = more antiviral protection, active = above 15; conditions: 100 nM; 48 h
Reported inhibition of SARS-CoV-2 cytopathic effect values follow for various compounds
Only the number, expressed in %, is required.

// worked examples, inhibition of SARS-CoV-2 cytopathic effect included
>>> measured_value("O=S(=O)(Cc1ccccc1)Nc1ccc(-c2ccc3c(cnn3-c3ccc(F)cc3)c2)c(C(F)(F)F)c1")
-0.94
>>> measured_value("Nc1ncnc2c1c(-c1ccc(Cl)cc1)nn2-c1cccc(-c2cnnn2Cc2cccc(-c3ccccc3)c2)c1")
-1.05
>>> measured_value("CC(=O)OCC(=O)[C@@]12N=C(C)O[C@@H]1C[C@H]1[C@@H]3CCC4=CC(=O)C=C[C@]4(C)[C@H]3[C@@H](O)C[C@@]12C [Deflazacort (Calcort)]")
-11.5

Kindly review the next compound as well.
What the record says about O=C1O[C@H]([C@@H](O)CO)C([O-])=C1O.[Na+] [sodium-ascorbate] : inhibition of SARS-CoV-2 cytopathic effect is 0.39

---

tested on: Vero E6 infected with SARS-CoV-2; test: inhibition of SARS-CoV-2 cytopathic effect; higher = more antiviral protection, active = above 15; conditions: 100 nM; 48 h
Reported inhibition of SARS-CoV-2 cytopathic effect values follow for various compounds
Only the number, expressed in %, is required.

>>> measured_value("O=S(=O)(O)c1cc(O)ccc1O [etamsylate]")
-0.81
>>> measured_value("COc1cc(C(=O)NCc2ccc(OCCN(C)C)cc2)cc(OC)c1OC [trimethobenzamide]")
2.21
>>> measured_value("C[C@]12CC[C@H]3[C@@H](CC[C@]4(O)C[C@@H](O)CC[C@]34C=O)[C@@]1(O)CC[C@@H]2C1=CC(=O)OC1")
-5.59

What the record says about C=C[C@@]1(C)CC(=O)[C@]2(O)[C@@]3(C)[C@@H](O)CCC(C)(C)[C@@H]3[C@H](OC(=O)CCN(C)C)[C@H](OC(C)=O)[C@@]2(C)O1 [colforsin-daproate] : inhibition of SARS-CoV-2 cytopathic effect is -3.35

What the record says about COc1cc(Nc2c(C#N)cnc3cc(OCCCN4CCN(C)CC4)c(OC)cc23)c(Cl)cc1Cl : inhibition of SARS-CoV-2 cytopathic effect is -1.97

What the record says about O=C(Nc1c(Cl)cncc1Cl)c1ccc(OC(F)F)c(OCC2CC2)c1 : inhibition of SARS-CoV-2 cytopathic effect is 0.72

What the record says about CCC1(c2ccccc2)C(=O)N(COC)C(=O)N(COC)C1=O : inhibition of SARS-CoV-2 cytopathic effect is -1.29

What the record says about Cc1cc(C)cc(NC(=O)Cc2ccc(OC(C)(C)C(=O)O)cc2)c1 : inhibition of SARS-CoV-2 cytopathic effect is 1.44

---

system: Vero E6 infected with SARS-CoV-2; assay: inhibition of SARS-CoV-2 cytopathic effect; higher = more antiviral protection, active = above 15; settings: 8.33 nM; 48 h
Reported inhibition of SARS-CoV-2 cytopathic effect values follow for various molecules
Only the number, expressed in %, is required.

// worked examples, inhibition of SARS-CoV-2 cytopathic effect included
>>> measured_value("COc1ccc(Cl)c(Nc2ncnc3cc(OCC4CCN(C)CC4)c(OC)cc23)c1")
-0.25
>>> measured_value("CC(C)CN(C[C@@H](O)[C@H](Cc1ccccc1)NC(=O)O[C@H]1CO[C@H]2OCC[C@H]21)S(=O)(=O)c1ccc(N)cc1")
-2.86

What the record says about NCc1ccc(S(N)(=O)=O)cc1 [mafenide] : inhibition of SARS-CoV-2 cytopathic effect is 1.5

What the record says about O=C(/C=C/c1cccc(S(=O)(=O)Nc2ccccc2)c1)NO : inhibition of SARS-CoV-2 cytopathic effect is 0.41

What the record says about O=C(O)CCCC[C@@H]1SC[C@@H]2NC(=O)N[C@@H]21 : inhibition of SARS-CoV-2 cytopathic effect is 1.22

What the record says about CN1CCN2c3c(cccc31)[C@@H]1CN(CCCC(=O)c3ccc(F)cc3)CC[C@@H]12 : inhibition of SARS-CoV-2 cytopathic effect is 2.96

What the record says about COc1ccc(S(=O)(=O)N2CCC[C@H]2C(=O)Nc2cc(C)cc(C)c2)cc1 : inhibition of SARS-CoV-2 cytopathic effect is -4.21

What the record says about CC(=O)N(C)c1cc(-c2ccnc3c(C(=O)c4cccs4)cnn23)ccc1F : inhibition of SARS-CoV-2 cytopathic effect is -0.41

What the record says about CC(=C(CCO)SSCC1CCCO1)N(C=O)Cc1cnc(C)nc1N (stereo in doubt) : inhibition of SARS-CoV-2 cytopathic effect is 0.44
